Test system: HCC1569
Test: H1.0 immunofluorescence intensity relative to DMSO (% of DMSO); higher = stronger H1.0 induction, active = 140 or more
Settings: concentration: 10 µM; 24 h
Structures can show the parent of a compound that is named as a salt.
Would you please tag the item fulfilled when its H1.0 immunofluorescence intensity is 100 or above, and not fulfilled when it is below?

- COMPOUND: "CC1=C2C(=O)C3C(CC=C4CC(O)CCC43C)C2CCC12OC1CC(C)CNC1C2C (stereo not drawn)"
  ANSWER_LABEL: "not fulfilled"
- COMPOUND: "CN1CC(C(=O)NC2(C)OC3(O)C4CCCN4C(=O)C(Cc4ccccc4)N3C2=O)CC2c3cccc4[nH]cc(c34)CC21.CS(=O)(=O)O (stereo not drawn) [Dihydroergotamine mesylate]"
  ANSWER_LABEL: "fulfilled"
- COMPOUND: "CN1C2CC(OC(=O)C(CO)c3ccccc3)CC1C1OC12 (stereo not drawn)"
  ANSWER_LABEL: "not fulfilled"
- COMPOUND: "S=C(NC1CCCCC1)N1CCC(c2cnc[nH]2)CC1 [Thioperamide maleate]"
  ANSWER_LABEL: "not fulfilled"
- COMPOUND: "CC(CCc1ccccc1)NC(C)C(O)c1ccc(O)cc1.Cl (stereo not drawn) [Nylidrin hydrochloride]"
  ANSWER_LABEL: "not fulfilled"
- COMPOUND: "C[N+]1([O-])C2CCC1CC(OC(=O)C(CO)c1ccccc1)C2.Cl (stereo not drawn)"
  ANSWER_LABEL: "not fulfilled"
- COMPOUND: "C=CCN1CCC23c4c5ccc(O)c4OC2C(=O)CCC3(O)C1C5 (stereo not drawn)"
  ANSWER_LABEL: "fulfilled"

###

Test system: HCC1569
Test: cell number relative to DMSO (% of DMSO); higher = more cells (less growth inhibition / toxicity)
Settings: concentration: 10 µM; 24 h
Listed here are compounds together with their documented cell number.

- COMPOUND: "CN(C)C(=O)Oc1cccc([N+](C)(C)C)c1 [Neostigmine]"
  cell number: 104
- COMPOUND: "COc1cc2c3cc1Oc1c(OO)c(OC)cc4c1C(Cc1ccc(cc1)Oc1cc(ccc1O)CC3N(C)CC2)N(C)CC4.O=S(=O)(O)O (centres undefined) [Oxyacanthine sulfate]"
  cell number: 55.6
- COMPOUND: "CCCC(=O)OCC[N+](C)(C)C [Butyrylcholine]"
  cell number: 101
- COMPOUND: "CC1CCC2(NC1)OC1CC3C4CC=C5CC(O)CCC5(C)C4CCC3(C)C1C2C (centres undefined) [Solasodine]"
  cell number: 102
- COMPOUND: "CCNC1=Nc2ccc(Cl)cc2C(C)(c2ccccc2)O1.Cl (centres undefined)"
  cell number: 92.5
- COMPOUND: "N#CC(OC1OC(COC2OC(CO)C(O)C(O)C2O)C(O)C(O)C1O)c1ccccc1 (centres undefined) [Amygdalin]"
  cell number: 103
- COMPOUND: "O=c1[nH]c2ccccc2n1CCCN1CCC(n2c(=O)[nH]c3cc(Cl)ccc32)CC1 [Domperidone]"
  cell number: 97.7
- COMPOUND: "Br.CCC1CN2CCc3cc(OC)c(OC)cc3C2CC1CC1NCCc2cc(O)c(OC)cc21 (centres undefined)"
  cell number: 59.6
- COMPOUND: "CC12CCC(O)CC1CCC1C2CCC2(C)C(C3=CC(=O)OC3)C(O)CC12O (centres undefined) [Gitoxigenin]"
  cell number: 104
- COMPOUND: "COc1cc(C(O)CN)ccc1O.Cl (racemic)"
  cell number: 102
- COMPOUND: "CC(=O)OCC1=CC2C3C(C)(C)C3(OC(=O)Cc3ccccc3)CC(C)C2(O)C2C=C(C)C(=O)C2(O)C1 (centres undefined) [12-Deoxyphorbol 13-phenylacetate 20-acetate]"
  cell number: 90.8
- COMPOUND: "CN(C)C(=O)Oc1cccc([N+](C)(C)C)c1.[Br-] [Neostigmine bromide]"
  cell number: 107
- COMPOUND: "CC(N)c1cccc(Cl)c1Cl.Cl (racemic)"
  cell number: 100
- COMPOUND: "CN(C)C(=O)C(CCN1CCC(O)(c2ccc(Cl)cc2)CC1)(c1ccccc1)c1ccccc1.Cl [Loperamide hydrochloride]"
  cell number: 84.8
- COMPOUND: "C[N+](C)(C)CCOC(=O)CBr.[Br-] [Bromoacetylcholine bromide]"
  cell number: 98.5
- COMPOUND: "O=C1C=C2C(=CCOC2O)O1 (centres undefined) [Patulin]"
  cell number: 22.4
- COMPOUND: "CCn1cnc2c(Nc3cccc(Cl)c3)nc(NC3CCCCC3N)nc21 (centres undefined)"
  cell number: 54
- COMPOUND: "CSC(=S)NCc1c[nH]c2ccccc12 [Brassinin]"
  cell number: 100
- COMPOUND: "Cl.Cl.Oc1ccc2c3c1OC1c4[nH]c5c(c4CC4(O)C(C2)N(CC2CC2)CCC314)CC1(O)C2Cc3ccc(O)c4c3C1(CCN2CC1CC1)C5O4 (centres undefined) [nor-Binaltorphimine dihydrochloride]"
  cell number: 106
- COMPOUND: "CN1C2CC(OC(=O)C(CO)c3ccccc3)CC1C1OC12 (centres undefined) [Scopolamine]"
  cell number: 102
- COMPOUND: "CC1(O)CC23CC(O)C4(O)C(CC(O)C4(C)C)C(C)(O)C2CCC1C3O (centres undefined) [Grayanotoxin III]"
  cell number: 99.6
- COMPOUND: "COC1C=C2CCN(C)C2C2c3cc4c(cc3C(=O)OC12)OCO4.O=[N+]([O-])O (centres undefined) [Ungerine nitrate]"
  cell number: 100
- COMPOUND: "CCCN(CCC)C1CCc2ccc(O)cc2C1 (racemic)"
  cell number: 102
- COMPOUND: "CC12C(=O)OC(=O)C1(C)C1CCC2O1 (centres undefined) [Cantharidin]"
  cell number: 20.6
